Provenance of the data: paper PMC8699473

- Assay Remarks: Autosampler stability of ready for injection samples
- Assay type: physicochemical, human
- Test Settings: validation standard 2xLLOV
Readout: Autosampler (72h, 4°C) Accuracy [%] (%)
Use % as the unit, but write only the number.

As a guide, the following entries are already answered.
{"columns": ["Compound", "Readout Number"],
 "data": [
  ["N#CC[C@H](C1CCCC1)n1cc(-c2ncnc3[nH]ccc23)cn1 [Ruxolitinib]", 97.7],
  ["CCCS(=O)(=O)Nc1ccc(F)c(C(=O)c2c[nH]c3ncc(-c4ccc(Cl)cc4)cc23)c1F [Vemurafenib]", 102.3],
  ["CNC(=O)c1cc(Oc2ccc(NC(=O)Nc3ccc(Cl)c(C(F)(F)F)c3)c(F)c2)ccn1 [Regorafenib]", 101.1]
]}

Query: Sample Cc1ccc(Nc2nccc(N(C)c3ccc4c(C)n(C)nc4c3)n2)cc1S(N)(=O)=O [Pazopanib] — what was its Autosampler (72h, 4°C) Accuracy [%]?
Response: 99.4

----------
- Assay Remarks: Long-term stability in spiked pooled human plasma
- Test Settings: validation standard ULOV
# Long-term stability, 1 month, -20°C Accuracy [%] listing for each entry below
Use % as the unit, but write only the number.

{"columns": ["Compound", "Readout Number"],
 "data": [
  ["CNC(=O)c1ccc(N2C(=S)N(c3cnc(C#N)c(C(F)(F)F)c3)C(=O)C23CCC3)cc1F [Apalutamide]", 90.6],
  ["CCC1=C[C@@H]2CN(C1)Cc1c([nH]c3ccccc13)[C@@](C(=O)OC)(c1cc3c(cc1OC)N(C)[C@H]1[C@@](O)(C(=O)OC)[C@H](OC(C)=O)[C@]4(CC)C=CCN5CC[C@]31[C@@H]54)C2", 90.4],
  ["Cc1ccc(NC(=O)c2ccc(CN3CCN(C)CC3)cc2)cc1Nc1nccc(-c2cccnc2)n1", 87.9],
  ["C#Cc1cccc(Nc2ncnc3cc(OCCOC)c(OCCOC)cc23)c1", 99.6]
]}

Alright, here's another compound for you.
Query: Sample COC(=O)c1ccc2c(c1)NC(=O)/C2=C(\Nc1ccc(N(C)C(=O)CN2CCN(C)CC2)cc1)c1ccccc1 — what was its Long-term stability, 1 month, -20°C Accuracy [%]?
Response: 94.5

----------
- Assay Remarks: Long-term stability in spiked pooled human plasma
- Test Settings: validation standard 2xLLOV
# Long-term stability, 3 month, -20°C Accuracy [%] listing for each entry below
Use % as the unit, but write only the number.

As a guide, the following entries are already answered.
{"columns": ["Molecule", "Unit Of Measurement", "Readout Number"],
 "data": [
  ["COc1cc2nccc(Oc3ccc(NC(=O)C4(C(=O)Nc5ccc(F)cc5)CC4)cc3)c2cc1OC [Cabozantinib]", "%", 92.5],
  ["Nc1cccc2c1C(=O)N(C1CCC(=O)NC1=O)C2=O (stereo not shown) [Pomalidomide]", "%", 95.5],
  ["CNC(=O)c1ccccc1Sc1ccc2c(/C=C/c3ccccn3)n[nH]c2c1", "%", 92.9],
  ["CCCS(=O)(=O)Nc1ccc(F)c(C(=O)c2c[nH]c3ncc(-c4ccc(Cl)cc4)cc23)c1F", "%", 97.3],
  ["COc1cc2ncnc(Nc3ccc(F)c(Cl)c3)c2cc1NC(=O)/C=C/CN1CCCCC1", "%", 89.4]
]}

Query: Sample CCC1=C[C@@H]2CN(C1)Cc1c([nH]c3ccccc13)[C@@](C(=O)OC)(c1cc3c(cc1OC)N(C)[C@H]1[C@@](O)(C(=O)OC)[C@H](OC(C)=O)[C@]4(CC)C=CCN5CC[C@]31[C@@H]54)C2 — what was its Long-term stability, 3 month, -20°C Accuracy [%]?
Response: 98.4

Query: Another molecule to check: NC(=O)c1cccc2cn(-c3ccc([C@@H]4CCCNC4)cc3)nc12
Response: 99.8

----------
- Assay Remarks: Short-term stability in spiked pooled human plasma (bench-top, 4 °C, 56 °C)
- Test Settings: validation standard ULOV
Readout: Short-time stability (24h, RT, with daylight) Accuracy [%]

{"columns": ["Compound", "Result"],
 "data": [
  ["O=C1CN2Cc3c(ccc(Cl)c3Cl)N=C2N1 [Anagrelide]", "98.5%"],
  ["O=c1[nH]c(=O)n([C@H]2C[C@H](O)[C@@H](CO)O2)cc1C(F)(F)F", "66.9%"]
]}

Query: Sample CC(=O)Nc1cccc(-n2c(=O)n(C3CC3)c(=O)c3c(Nc4ccc(I)cc4F)n(C)c(=O)c(C)c32)c1 — what was its Short-time stability (24h, RT, with daylight) Accuracy [%]?
Response: 96.8%

Query: Another compound to check: CN(C)C/C=C/C(=O)Nc1cc2c(Nc3ccc(F)c(Cl)c3)ncnc2cc1O[C@H]1CCOC1
Response: 77.8%

Query: Another compound to check: COc1cc2ncnc(Nc3ccc(F)c(Cl)c3)c2cc1NC(=O)/C=C/CN1CCCCC1
Response: 85.6%

Query: Another compound to check: CNC(=O)c1cc(Oc2ccc(NC(=O)Nc3ccc(Cl)c(C(F)(F)F)c3)cc2)ccn1
Response: 91.0%

Query: Another compound to check: Cc1nc(Nc2ncc(C(=O)Nc3c(C)cccc3Cl)s2)cc(N2CCN(CCO)CC2)n1
Response: 99.4%

----------
- Assay Remarks: Long-term stability in spiked pooled human plasma
- Test Settings: validation standard MOV
# Long-term stability, 3 month, -20°C Accuracy [%] listing for each entry below
Use % as the unit, but write only the number.

As a guide, the following entries are already answered.
{"columns": ["Compound", "Unit Of Measurement", "Readout Number"],
 "data": [
  ["COc1cc2nccc(Oc3ccc(NC(=O)NC4CC4)c(Cl)c3)c2cc1C(N)=O [Lenvatinib]", "%", 99.7],
  ["COc1cc2nccc(Oc3ccc(NC(=O)Nc4cc(C)on4)c(Cl)c3)c2cc1OC [Tivozanib]", "%", 100.0],
  ["C[C@@H](Oc1cc(-c2cnn(C3CCNCC3)c2)cnc1N)c1c(Cl)ccc(F)c1Cl [Crizotinib]", "%", 94.9],
  ["CNC(=O)c1cc(Oc2ccc(NC(=O)Nc3ccc(Cl)c(C(F)(F)F)c3)cc2)ccn1 [Sorafenib]", "%", 94.0],
  ["COc1cc2nccc(Oc3ccc(NC(=O)C4(C(=O)Nc5ccc(F)cc5)CC4)cc3)c2cc1OC [Cabozantinib]", "%", 100.0]
]}

Query: Sample COc1cc(N2CCC(N3CCN(C)CC3)CC2)ccc1Nc1ncc(Cl)c(Nc2ccccc2P(C)(C)=O)n1 [Brigatinib] — what was its Long-term stability, 3 month, -20°C Accuracy [%]?
Response: 105.5

Query: Another compound to check: Cc1cn(-c2cc(NC(=O)c3ccc(C)c(Nc4nccc(-c5cccnc5)n4)c3)cc(C(F)(F)F)c2)cn1 [Nilotinib]
Response: 96.9

Query: Another compound to check: N#CC[C@H](C1CCCC1)n1cc(-c2ncnc3[nH]ccc23)cn1 [Ruxolitinib]
Response: 97.0

Query: Another compound to check: CCCS(=O)(=O)Nc1ccc(F)c(C(=O)c2c[nH]c3ncc(-c4ccc(Cl)cc4)cc23)c1F [Vemurafenib]
Response: 92.9

Query: Another compound to check: O=C(c1ccc(F)c(F)c1Nc1ccc(I)cc1F)N1CC(O)([C@@H]2CCCCN2)C1 [Cobimetinib]
Response: 99.2

Query: Another compound to check: Nc1cccc2c1CN(C1CCC(=O)NC1=O)C2=O (stereo not shown) [Lenalidomide]
Response: 92.9

Query: Another compound to check: NC(=O)c1cccc2cn(-c3ccc([C@@H]4CCCNC4)cc3)nc12 [Niraparib]
Response: 102.2

Query: Another compound to check: CO[C@@H]1[C@H](N(C)C(=O)c2ccccc2)C[C@H]2O[C@]1(C)n1c3ccccc3c3c4c(c5c6ccccc6n2c5c31)C(=O)NC4 [Midostaurin]
Response: 102.0

----------
- Assay Remarks: Long-term stability in spiked pooled human plasma
- Test Settings: validation standard LLOV
Readout: Long-term stability, 6 weeks, 4°C, without daylight Accuracy [%] (%)
Use % as the unit, but write only the number.

{"columns": ["Compound", "Readout Number"],
 "data": [
  ["CNC(=O)c1cc(Oc2ccc(NC(=O)Nc3ccc(Cl)c(C(F)(F)F)c3)cc2)ccn1 [Sorafenib]", 71.1],
  ["COc1cc2ncnc(Nc3ccc(F)c(Cl)c3)c2cc1NC(=O)/C=C/CN1CCCCC1 [Dacomitinib]", 61.0],
  ["COc1cc2nccc(Oc3ccc(NC(=O)Nc4cc(C)on4)c(Cl)c3)c2cc1OC [Tivozanib]", 86.9],
  ["Nc1cccc2c1C(=O)N(C1CCC(=O)NC1=O)C2=O (stereo not drawn) [Pomalidomide]", 30.1],
  ["CNC(=O)c1cc(Oc2ccc(NC(=O)Nc3ccc(Cl)c(C(F)(F)F)c3)c(F)c2)ccn1 [Regorafenib]", 79.3]
]}

Query: Sample O=c1[nH]c(=O)n([C@H]2C[C@H](O)[C@@H](CO)O2)cc1C(F)(F)F [Trifluridine] — what was its Long-term stability, 6 weeks, 4°C, without daylight Accuracy [%]?
Response: 49.1

Query: Another compound to check: Cc1nc(Nc2ncc(C(=O)Nc3c(C)cccc3Cl)s2)cc(N2CCN(CCO)CC2)n1 [Dasatinib]
Response: 79.4

Query: Another compound to check: CS(=O)(=O)CCNCc1ccc(-c2ccc3ncnc(Nc4ccc(OCc5cccc(F)c5)c(Cl)c4)c3c2)o1 [Lapatinib]
Response: 28.2

Query: Another compound to check: O=C(Nc1cnn2ccc(N3CCC[C@@H]3c3cc(F)ccc3F)nc12)N1CC[C@H](O)C1 [Larotrectinib]
Response: 115.2

Query: Another compound to check: COC(=O)N[C@@H](C)CNc1nccc(-c2cn(C(C)C)nc2-c2cc(Cl)cc(NS(C)(=O)=O)c2F)n1 [Encorafenib]
Response: 81.0

Query: Another compound to check: Cc1c(C(=O)Nc2ccc(N3C[C@@H](C)O[C@@H](C)C3)nc2)cccc1-c1ccc(OC(F)(F)F)cc1 [Sonidegib]
Response: 89.3

Query: Another compound to check: Cc1cc(Nc2ncc(Cl)c(Nc3ccccc3S(=O)(=O)C(C)C)n2)c(OC(C)C)cc1C1CCNCC1 [Ceritinib]
Response: 78.9

Query: Another compound to check: CNC(=O)c1ccccc1Sc1ccc2c(/C=C/c3ccccn3)n[nH]c2c1 [Axitinib]
Response: 49.2

Query: Another compound to check: CC1(C)CCC(CN2CCN(c3ccc(C(=O)NS(=O)(=O)c4ccc(NCC5CCOCC5)c([N+](=O)[O-])c4)c(Oc4cnc5[nH]ccc5c4)c3)CC2)=C(c2ccc(Cl)cc2)C1 [Venetoclax]
Response: 92.7

Query: Another compound to check: Cc1cn(-c2cc(NC(=O)c3ccc(C)c(Nc4nccc(-c5cccnc5)n4)c3)cc(C(F)(F)F)c2)cn1 [Nilotinib]
Response: 102.0
